B1: HDV Ribozyme (parent)
chain: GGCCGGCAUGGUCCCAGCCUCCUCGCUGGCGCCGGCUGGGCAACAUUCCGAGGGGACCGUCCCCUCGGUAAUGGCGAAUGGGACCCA

variants of: B1; test: self-cleavage, relative activity (ratio to wild type); higher = more cleavage; co-transcriptional
observed.property: self-cleavage
API note: the answer field is a bare number with no unit suffix.

Consider the following illustrative entries.
C7U G76A | 1.09
U47C G55U | 0.831
U79G C84U | 0.554
U12C A83G | 0.85
G2A C85U | 0.115

Query: Please supply the value of reported self-cleavage for the item C3A A78C
Response: 0.0785

Query: Please supply the value of reported self-cleavage for the item C14G G29U
Response: 0.0396

Query: Please supply the value of reported self-cleavage for the item C7A U9G
Response: 0.396

Query: Please supply the value of reported self-cleavage for the item G1U C57A
Response: 0.423

Query: Please supply the value of reported self-cleavage for the item U60C A87U
Response: 0.921

Query: Please supply the value of reported self-cleavage for the item G11A A78U
Response: 0.111

Query: Please supply the value of reported self-cleavage for the item U9A U79A
Response: 0.923

Query: Please supply the value of reported self-cleavage for the item U65G G82U
Response: 0.453

Query: Please supply the value of reported self-cleavage for the item C21G U69A
Response: 0.0426

Query: Please supply the value of reported self-cleavage for the item G29C G52U
Response: 0

Query: Please supply the value of reported self-cleavage for the item A8G G59C
Response: 0.858

Query: Please supply the value of reported self-cleavage for the item C22A G39A
Response: 0.0528

Query: Please supply the value of reported self-cleavage for the item C41A A42C
Response: 0.739
